Experiment: Maximum tolerated dose (MTD)
Assay type: in vivo, nude mice
Conditions: nude, mouse, in vivo; Compound A1 PO 2QD 2 days on/5 days off; paclitaxel IV QW; docetaxel i.v. 1 day on/6 days off; read-out: MTD (maximum tolerated dose), single-agent
Record form. Attribute: MTD. Fill in for each entry.
Provide only the numeric value, understood in mg/kg.

Qu. Find the recorded MTD belonging to COc1cc(S(C)(=O)=O)ccc1Nc1nc2ccc(-c3ccc(NC(=O)[C@H](C)c4ccc(F)cc4)cc3)cn2n1 [Compound A1] and report it.
Ans. 2.5

Qu. Same read-out for CC(=O)O[C@@]12CO[C@@H]1C[C@H](O)[C@@]1(C)C(=O)[C@H](O)C3=C(C)[C@@H](OC(=O)[C@H](O)[C@@H](NC(=O)OC(C)(C)C)c4ccccc4)C[C@@](O)([C@@H](OC(=O)c4ccccc4)[C@H]21)C3(C)C [Docetaxel, reference compound] ?
Ans. 15
